biological target: DNA topoisomerase 1 (Homo sapiens, UniProt P11387); assay: Inhibition of human DNA topoisomerase 1 at free enzyme state
pIC50: −log10 of the molar value.
OBSERVED PROPERTY: pIC50

{"columns": ["COMPOUND", "READING"],
 "data": [
  ["C/C=C(/C)C(=O)O[C@H]1[C@H](O)[C@]2(CO)[C@H](O)C[C@]3(C)C(=CC[C@@H]4[C@@]5(C)CC[C@H](O[C@@H]6O[C@H](C(=O)O)[C@@H](O)[C@H](O[C@@H]7O[C@@H](CO)[C@H](O)[C@H]7O)[C@H]6O)[C@](C)(CO)[C@@H]5CC[C@]43C)[C@@H]2CC1(C)C [AESCULIOSIDE IID]", 4.62],
  ["C/C=C(/C)C(=O)O[C@H]1[C@H](OC(=O)/C(C)=C\\C)[C@]2(CO)[C@H](O)C[C@]3(C)C(=CC[C@@H]4[C@@]5(C)CC[C@H](O[C@@H]6O[C@H](C(=O)O)[C@@H](O)[C@H](O[C@@H]7O[C@@H](CO)[C@H](O)[C@H]7O)[C@H]6O[C@@H]6O[C@H](CO)[C@H](O)[C@H](O)[C@H]6O)C(C)(C)[C@@H]5CC[C@]43C)[C@@H]2CC1(C)C", 4.62],
  ["C/C=C(/C)C(=O)O[C@H]1[C@H](O)[C@]2(CO)[C@H](O)C[C@]3(C)C(=CC[C@@H]4[C@@]5(C)CC[C@H](O[C@@H]6O[C@H](C(=O)O)[C@@H](O)[C@H](O[C@@H]7O[C@@H](CO)[C@H](O)[C@H]7O)[C@H]6O[C@@H]6O[C@H](CO)[C@H](O)[C@H](O)[C@H]6O)C(C)(C)[C@@H]5CC[C@]43C)[C@@H]2CC1(C)C [AESCULIOSIDE IIC]", 4.62]
]}

---

target: DNA topoisomerase 1 (Homo sapiens) (UniProt P11387); assay: Inhibition of human DNA topoisomerase 1-mediated relaxation of supercoiled DNA at 450 uM
Sequence (P11387 whole entry): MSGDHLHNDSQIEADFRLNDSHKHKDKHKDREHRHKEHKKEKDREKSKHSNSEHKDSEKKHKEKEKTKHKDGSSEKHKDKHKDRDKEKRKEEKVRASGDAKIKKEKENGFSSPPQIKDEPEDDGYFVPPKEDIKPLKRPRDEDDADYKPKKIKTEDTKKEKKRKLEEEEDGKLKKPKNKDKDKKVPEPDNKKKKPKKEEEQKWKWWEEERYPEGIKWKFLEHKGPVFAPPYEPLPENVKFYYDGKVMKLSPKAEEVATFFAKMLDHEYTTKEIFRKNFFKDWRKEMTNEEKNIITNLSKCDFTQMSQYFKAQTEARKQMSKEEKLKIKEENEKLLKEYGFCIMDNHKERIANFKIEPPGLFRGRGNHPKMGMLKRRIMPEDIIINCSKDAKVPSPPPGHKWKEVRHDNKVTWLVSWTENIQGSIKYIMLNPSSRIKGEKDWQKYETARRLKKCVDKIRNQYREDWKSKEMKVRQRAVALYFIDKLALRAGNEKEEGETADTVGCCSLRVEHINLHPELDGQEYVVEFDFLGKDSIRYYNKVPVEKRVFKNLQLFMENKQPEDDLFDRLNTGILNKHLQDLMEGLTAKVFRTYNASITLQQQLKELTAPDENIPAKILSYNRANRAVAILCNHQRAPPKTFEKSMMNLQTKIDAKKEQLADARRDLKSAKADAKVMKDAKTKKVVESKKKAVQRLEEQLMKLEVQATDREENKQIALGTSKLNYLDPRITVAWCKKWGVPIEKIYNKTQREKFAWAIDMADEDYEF
Activity calls are given as the source filed them. No cut-off for these calls is given here.
Outcome codes: YES = active, NO = inactive

{"columns": ["COMPOUND", "LABEL CLASS"],
 "data": [
  ["C/C=C(/C)C(=O)O[C@H]1[C@H](O)[C@]2(CO)[C@H](O)C[C@]3(C)C(=CC[C@@H]4[C@@]5(C)CC[C@H](O[C@@H]6O[C@H](C(=O)O)[C@@H](O)[C@H](O[C@@H]7O[C@@H](CO)[C@H](O)[C@H]7O)[C@H]6O)[C@](C)(CO)[C@@H]5CC[C@]43C)[C@@H]2CC1(C)C [AESCULIOSIDE IID]", "YES"],
  ["C/C=C(/C)C(=O)O[C@H]1[C@H](O)[C@]2(CO)[C@H](O)[C@H](O)[C@]3(C)C(=CC[C@@H]4[C@@]5(C)CC[C@H](O[C@@H]6O[C@H](C(=O)O)[C@@H](O)[C@H](O[C@@H]7O[C@@H](CO)[C@H](O)[C@H]7O)[C@H]6O[C@@H]6O[C@H](CO)[C@H](O)[C@H](O)[C@H]6O)C(C)(C)[C@@H]5CC[C@]43C)[C@@H]2CC1(C)C [AESCULIOSIDE IIA]", "YES"],
  ["C/C=C(/C)C(=O)O[C@H]1[C@H](OC(=O)C(C)C)[C@]2(CO)[C@H](O)[C@H](O)[C@]3(C)C(=CC[C@@H]4[C@@]5(C)CC[C@H](O[C@@H]6O[C@H](C(=O)O)[C@@H](O)[C@H](O[C@@H]7O[C@@H](CO)[C@H](O)[C@H]7O)[C@H]6O[C@@H]6O[C@H](CO)[C@@H](O)[C@H](O)[C@H]6O)[C@](C)(CO)[C@@H]5CC[C@]43C)[C@@H]2CC1(C)C [AESCULIOSIDE IIIB]", "YES"],
  ["C/C=C(/C)C(=O)O[C@H]1[C@H](OC(=O)/C(C)=C\\C)[C@]2(CO)[C@H](O)C[C@]3(C)C(=CC[C@@H]4[C@@]5(C)CC[C@H](O)C(C)(C)[C@@H]5CC[C@]43C)[C@@H]2CC1(C)C", "NO"],
  ["C/C=C(/C)C(=O)O[C@H]1[C@H](O)[C@]2(CO)[C@H](O)C[C@]3(C)C(=CC[C@@H]4[C@@]5(C)CC[C@H](O[C@@H]6O[C@H](C(=O)O)[C@@H](O)[C@H](O[C@@H]7O[C@@H](CO)[C@H](O)[C@H]7O)[C@H]6O[C@@H]6O[C@H](CO)[C@H](O)[C@H](O)[C@H]6O)C(C)(C)[C@@H]5CC[C@]43C)[C@@H]2CC1(C)C [AESCULIOSIDE IIC]", "YES"],
  ["C/C=C(\\C)C(=O)O[C@H]1[C@H](OC(=O)C(C)CC)[C@]2(CO)[C@H](O)[C@H](O)[C@]3(C)C(=CC[C@@H]4[C@@]5(C)CC[C@H](O[C@@H]6O[C@H](C(=O)O)[C@@H](O)[C@H](O[C@@H]7O[C@@H](CO)[C@H](O)[C@H]7O)[C@H]6O[C@@H]6O[C@H](CO)[C@H](O)[C@H](O)[C@H]6O)C(C)(C)[C@@H]5CC[C@]43C)[C@@H]2CC1(C)C (some centres not stated) [AESCULIOSIDE IIIC]", "YES"],
  ["C/C=C(/C)C(=O)O[C@H]1[C@H](O)[C@]2(COC(C)=O)[C@H](O)C[C@]3(C)C(=CC[C@@H]4[C@@]5(C)CC[C@H](O[C@@H]6O[C@H](C(=O)O)[C@@H](O)[C@H](O[C@@H]7O[C@@H](CO)[C@H](O)[C@H]7O)[C@H]6O[C@@H]6O[C@H](CO)[C@@H](O)[C@H](O)[C@H]6O)[C@](C)(CO)[C@@H]5CC[C@]43C)[C@@H]2CC1(C)C [AESCULIOSIDE IIIA]", "YES"]
]}

Values compiled from ChEMBL document CHEMBL1157938.
